The measured values listed here are drawn from patent US20210388087A1.

- Target entity: T1, Human CD3eg linker (human)
- T1 construct: Single chain: epsilon and gamma subunits of human CD3 joined by a 29-mer linker, Flag-tag at the C-terminus; also called recombinant human CD3
- T1 chain: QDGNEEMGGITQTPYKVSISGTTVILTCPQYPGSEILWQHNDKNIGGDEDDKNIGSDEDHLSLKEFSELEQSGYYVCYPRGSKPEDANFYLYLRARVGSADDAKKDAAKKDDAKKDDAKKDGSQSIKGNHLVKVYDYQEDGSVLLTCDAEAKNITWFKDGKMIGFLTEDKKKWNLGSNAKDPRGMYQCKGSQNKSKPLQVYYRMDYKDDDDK
- Run description: Biacore SPR, vs template H183/L072
Mark true (1) only when fold change of affinity stays strictly below 1 fold. Values equal to the cut-off are false (0).

Consider the worked cases shown below.
H183/L072 VH Y55G (antibody, name in Kabat numbering, V domains shown) VH: QVQLVESGGGLVQPGRSLRLSCAASGFTFSNAWMHWVRQAPGKGLEWVAQIKDKGNAGAAYYAPSVKGRFTISRDDSKNSIYLQMNSLKTEDTAVYYCHYVHYASASTVLPAFGVDAWGQGTTVTVSS VL: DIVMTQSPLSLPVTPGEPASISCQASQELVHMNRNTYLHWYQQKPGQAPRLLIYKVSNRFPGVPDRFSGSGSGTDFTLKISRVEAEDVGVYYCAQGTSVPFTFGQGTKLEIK : true (1)
H183/L072 VH S62I (antibody, name in Kabat numbering, V domains shown) VH: QVQLVESGGGLVQPGRSLRLSCAASGFTFSNAWMHWVRQAPGKGLEWVAQIKDKGNAYAAYYAPIVKGRFTISRDDSKNSIYLQMNSLKTEDTAVYYCHYVHYASASTVLPAFGVDAWGQGTTVTVSS VL: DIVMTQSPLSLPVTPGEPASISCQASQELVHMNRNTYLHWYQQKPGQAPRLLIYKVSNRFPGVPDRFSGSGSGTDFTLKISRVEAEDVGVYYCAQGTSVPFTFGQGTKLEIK : false (0)
H183/L072 VH A32K (antibody, name in Kabat numbering, V domains shown) VH: QVQLVESGGGLVQPGRSLRLSCAASGFTFSNKWMHWVRQAPGKGLEWVAQIKDKGNAYAAYYAPSVKGRFTISRDDSKNSIYLQMNSLKTEDTAVYYCHYVHYASASTVLPAFGVDAWGQGTTVTVSS VL: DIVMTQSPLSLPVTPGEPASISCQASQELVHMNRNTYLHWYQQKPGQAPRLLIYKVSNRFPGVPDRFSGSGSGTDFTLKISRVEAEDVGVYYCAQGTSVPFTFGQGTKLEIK : true (1)
H183/L072 VH Y59I (antibody, name in Kabat numbering, V domains shown) VH: QVQLVESGGGLVQPGRSLRLSCAASGFTFSNAWMHWVRQAPGKGLEWVAQIKDKGNAYAAYIAPSVKGRFTISRDDSKNSIYLQMNSLKTEDTAVYYCHYVHYASASTVLPAFGVDAWGQGTTVTVSS VL: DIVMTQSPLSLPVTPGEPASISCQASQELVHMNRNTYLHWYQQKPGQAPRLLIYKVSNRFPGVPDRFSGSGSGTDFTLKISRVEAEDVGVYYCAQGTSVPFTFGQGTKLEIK : true (1)

# input for lookup
query: Dear colleague, could you confirm whether fold change of affinity of H183/L072 VH V63A (antibody, name in Kabat numbering, V domains shown) VH: QVQLVESGGGLVQPGRSLRLSCAASGFTFSNAWMHWVRQAPGKGLEWVAQIKDKGNAYAAYYAPSAKGRFTISRDDSKNSIYLQMNSLKTEDTAVYYCHYVHYASASTVLPAFGVDAWGQGTTVTVSS VL: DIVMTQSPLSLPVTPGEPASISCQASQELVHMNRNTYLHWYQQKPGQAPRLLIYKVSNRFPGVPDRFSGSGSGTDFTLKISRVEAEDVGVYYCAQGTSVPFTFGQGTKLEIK falls below 1 fold? Thanks.
result: false (0)
